molecular target: CLDN3/4 (endogenous on LS513 or MCF7 cells); assay: FACS titration of labelled mAb on LS513 cells (endogenous CLDN3/4+)
Recorded measurements of EC50, one per entry
// note: answer is a bare numeric in nM

BINDER	ASSAY_RESULT
AB4 (antibody, V domains shown, full-length IgG (ExpiCHO)) VH: QVQLQQSGAELARPGASVKMSCKASGYTFTSYTMHWIKQRPGQGQEWIGYINPSSTYTHYIKKFKDKATLTADKSSSTAYMQLRSLTSEDSAVYYCSRGELGGFAYWGQGTLVTVSA VL: DVVMTQTPLSLPVSLGDQASISCRSSQSLVHSDGNTYLNWYLQKPGQSPKLLIYKVSNRFSGVPDRFSGSGSGTDFTLKIRRVEAEDLGVYFCSQSTHVPYTFGGGTKLEIK	730

Look at this binder and give its reported EC50. AB14 (antibody, V domains shown) VH: QVQLQQSGPELVRPGVSVKISCKGSGYTFTDYAMHWVKQSHAKSLEWIGVISTYSGNTNYNQKFQDKATMTVDKSSSTAYMALARLTSDDSAIYYCARRGDYSLYAMDYWGQGTSVTVSS VL: DIVLTQSPASLAVSLGQRATISCKASQSVDYDGDNYVNWYQQKVGQPPKLLISAASNLESGIPARFSGSGSGTDFTLNIHPVEEEDAATYYCQQSNEDPFTFGSGTKLEIK
1160
